Target: T1, mouse SPNS2 (mouse, UniProt Q91VM4 1-549)
T1 construct: on Flp-in 293 cells that also express human SphK1
T1 sequence: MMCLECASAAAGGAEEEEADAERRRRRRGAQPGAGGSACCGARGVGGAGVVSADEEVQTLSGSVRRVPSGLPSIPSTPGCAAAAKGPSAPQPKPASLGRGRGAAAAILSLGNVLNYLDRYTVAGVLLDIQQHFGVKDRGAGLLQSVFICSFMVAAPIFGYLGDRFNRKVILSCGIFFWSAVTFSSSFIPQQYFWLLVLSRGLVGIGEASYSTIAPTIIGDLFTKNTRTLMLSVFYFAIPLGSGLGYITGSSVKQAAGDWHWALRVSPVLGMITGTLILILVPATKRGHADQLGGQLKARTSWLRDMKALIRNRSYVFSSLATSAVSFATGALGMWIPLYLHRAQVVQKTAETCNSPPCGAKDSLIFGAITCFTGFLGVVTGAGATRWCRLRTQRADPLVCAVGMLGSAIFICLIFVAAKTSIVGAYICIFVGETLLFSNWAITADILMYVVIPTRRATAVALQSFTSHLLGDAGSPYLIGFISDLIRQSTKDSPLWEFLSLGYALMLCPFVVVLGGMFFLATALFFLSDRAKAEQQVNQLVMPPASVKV
Assay: Cell ELISA
Protocol: Human and mouse SPNS2 and human SphK1 double stable expression Flp-in 293 cells were added to a poly D lysine coat 96-well plate (Corning, 356461) in a density of 1×10⁵ cells/well and was cultivated overnight, and then the culture medium was removed. […] After 20 minutes, 2N sulfuric acid was added to each well (100 μL), and absorbance at 450 nm and 550 nm was measured. […]
ENDPOINT_LABEL: Emax
Please report the result as a number followed by the unit.

Using the record for 65-0810G (antibody, IgG2b, V domains shown) VH: EVHLVESGGGLVQPGRSMKLSCTASGFTFNNYYMAWVRQAPTKGLEWVASISTGGGYTYYRDSVKGRFTISRDNTGNTLYLQMDSLRSEDTATYYCARCWELPYWGQGVMVTVSS VL: QFVLTQPNSVSTNLGSTVKLSCRRSSGNIGNNYVNWYRQHEGRSPTTMIYRDDTRPDGVPNRFSGSIDRSSNSALLTINNVRPEDEAYYFCQSYSGSIYIFGGGTKLTVL , state its measured Emax.
1.54 absorbance

Using the record for 37-0511F (antibody, IgG2b, V domains shown) VH: EVHLQQSGAALVRPRASVKLSCKVSGDSISRYYVHFVKQRPGQGLEWIGRIDPEDDTTKYSEKFKNRATLTADASSDTASLILSGLTSDDTATYFCSTLTGLDYWGQGVMVTVSS VL: DIQMTQSPPVLSTSVGDRVTLRCKPSQNVHSKLDWYQQKHGEAPKLLIYYTHNLQTGIPSRFSGSGSGTDYTLTISSLQPEDVATYYCFQYYSGWTFGGGTKLEMKR , state its measured Emax.
1.29 absorbance

Using the record for 89-1207D (antibody, IgG2b, V domains shown) VH: EVQLVGSGGGLVQPGRSMKLSCEASGFTFSNHYMAWVRQAPTKGLEWVATISTGGGNTYYRDSVKGRFTISRDNARSILSLQMDSLRSEDTATYYCARQDYSNYMGGFAYWGQGTLVTVSS VL: QFVLTQPNSVSTNLGSTVKLSCTRSIGNIGNNYVNWYKQYEGRSPTTMIYRDDERPDGVPDRFSGSIDRSSNSALLTINNVQTEDEADYFCQSFSSGMFIFGGGTKLTVL , state its measured Emax.
1.85 absorbance

Using the record for 53-0707E (antibody, IgG2b, V domains shown) VH: EVQLQQSGAELVRPRTSVKLSCKVSGDSITRYYVHFVKQRPGQGLEWIGRIDPEDDTTKYSEKFKKKATLTADASSNTAYLIFSGLTSEDTATYFCSTLTGLDYWGQGVMVTVSS VL: DIQMTQSPPVLSTSVGDRVTLRCKASQNVHSKLDWYQQKHGEAPKLLIYYTHNLQTGIPSRFSGSGSGTDYTLTISSLQPEDVATYYCFQYYSGWTFGGGTKLEMKR , state its measured Emax.
1.43 absorbance

Using the record for 33-0503E (antibody, IgG2b, V domains shown) VH: EVQLVESGGGLVRPGGSMKLSCGASGFIFDNYYMTWVRQAPTKGLEWVASISSSGGNTYYRDSVRGRFTISRDNAGNTLSLQMGSLRAEDTATYHCAKEGYRGRYFDYWGQGVMVTVSS VL: QVVLTQPNSVSTNLGSTVKLSCKRTTGNIGSNYVNWYQQHEGRSPTTMIYRDDERPDGVPDRFSGSIDRSSNSALLTINNVQTEDEAEYFCQSYSSGIIFGGGTKLTVL , state its measured Emax.
2.2 absorbance
